Could you please report measured cytotoxicity at 10 µM for the items listed next?
Experiment: Toxicity liver stage against HepG2, at 10uM
Assay type: cell-based
Parameters: test concentration 10 uM, cell line HepG2-A16-CD81EGFP
Conditions: human, HepG2-A16-CD81EGFP cells; read-out: INHIBITION
Respond with the bare value in %.

Q: Dear colleague, I am looking for the recorded cytotoxicity at 10 µM of the following compound: "CC(=O)c1cnc(NCCCN2CCOCC2)nc1C"
Result: -2.77

Q: Please look up its cytotoxicity at 10 µM: Cc1cnn(CC2CCCN2C(=O)CCc2ccsc2)c1 (configuration not stated)
Result: -1.64

Q: Endpoint output: cytotoxicity at 10 µM of "Cc1ncnc2c1CCN(c1ccccn1)CC2" . Value?
Result: -157

Q: Report cytotoxicity at 10 µM for "Cc1cccc(-c2noc([C@@H]3Cc4nc[nH]c4CN3)n2)c1" please.
Result: 0.442

Q: Requested read-out: cytotoxicity at 10 µM. Entry: "Cc1csc(CN2C[C@@H]3CN(S(C)(=O)=O)CCO[C@@H]3C2)n1"
Result: -98.3

Q: Reported cytotoxicity at 10 µM for CN(Cc1cccnc1)CC1CC12CCCC2 (configuration not stated) : what is it?
Result: -0.243

Q: Would you mind telling me what cytotoxicity at 10 µM value was observed for "N#Cc1cccc(CNCCC(=O)N2CCc3sccc3C2)c1" ?
Result: 1.04

Q: For the compound CCN1CC(C(=O)N2CCN(c3cnn(C)c(=O)c3)CC2)CCC1=O (configuration not stated) , what cytotoxicity at 10 µM is on record?
Result: 0.508

Q: Which cytotoxicity at 10 µM value belongs to "CN(C)Cc1nnn2c1CN(Cc1cccnc1)CCC2" ?
Result: 5.69

Q: I am curious: what cytotoxicity at 10 µM value has been reported for O=C(C1CCCC1)N1CCOC(c2nc(-c3ncccn3)no2)C1 (configuration not stated) ?
Result: -2.3

Q: # lookup: cytotoxicity at 10 µM of "CN(C)CC(=O)N1CCC2(CC1)COCCN(c1ncccn1)C2"
Result: 5.38

Q: Reported cytotoxicity at 10 µM, compound "COc1ccccc1CC(=O)N1CCC(NCc2ccncc2)CC1" : ____
Result: -9.69
